Taken from PubChem BioAssay (NCI).

The compounds listed here are annotated with their TGI.
System: HCT-116 colon
Run description: NCI tumour cell line growth inhibition, 48 h

Worked cases, answers included:
Compound: COc1ccc(C(=O)/C=C/c2cc(-c3cc(OC)c(OC)c(OC)c3)n[nH]2)cc1
Tested on: HCT-116 colon
Metric: TGI
Endpoint value: 5.86 µM
--
Compound: COc1ccc(Oc2ccccc2N)cc1
Tested on: HCT-116 colon
Metric: TGI
Endpoint value: > 100 µM
--
Compound: O=C1/C(=C/c2ccc(F)cc2)CN(C(=O)CCN2CCC(=NO)CC2)C/C1=C\c1ccc(F)cc1
Tested on: HCT-116 colon
Metric: TGI
Endpoint value: 0.861 µM

// lookup TGI for CS(=O)(=O)Nc1cccc(-c2ccc3ncnc(Nc4ccc(F)c(Cl)c4)c3c2)c1
3.29 µM

====

Tested on: RXF 393 renal
Run description: NCI tumour cell line growth inhibition, 48 h
Metric: TGI

Worked cases, answers included:
Compound: COc1nc(C#CC2CCCCC2)nc(OC)n1
TGI: 19.1 µM
//
Compound: S=C1Cc2c(-c3ccc(Br)cc3)cc(-c3ccccc3)nc2-c2ccccc2N1
TGI: 6.01 µM
//
Compound: O=c1c2nc(-c3ccccc3)oc2n(-c2ccccc2)c(=O)n1-c1ccccc1
TGI: 34.8 µM
//
Compound: C#C[C@@]1(O)[C@@H](CO)O[C@@H](n2cc(I)c3c(N)ncnc32)[C@@H]1O
TGI: 2.26 µM
//
Compound: Cc1c2ccncc2c(C)c2c1[nH]c1ccc(OCCN(C)C)cc12
TGI: 0.906 µM

// lookup TGI for CCOc1cc2c(cc1O)C(O)C[C@@H]1[C@@H]2CC[C@]2(C)[C@@H](O)CC[C@@H]12 (some centres not stated)
5.25 µM

// lookup TGI for CC1OC(=O)C(O)=C1O (configuration not stated)
> 100 µM

====

System: HOP-62 NSCLC
Run description: NCI tumour cell line growth inhibition, 48 h
Metric: TGI

Worked cases, answers included:
Molecule: CC(=O)OC12C=C(C)C(C(C)C1)C1C(=O)N(CCN3CCCCC3)C(=O)C12 (stereo unspecified)
TGI: > 50 µM
--
Molecule: O=C(C(=O)n1ncc(Cl)c(Cl)c1=O)n1ncc(Cl)c(Cl)c1=O
TGI: > 100 µM

Notebook entry, HOP-62 NSCLC assay: TGI of CC(=O)OC[C@H]1On2nnnc2[C@H](OC(C)=O)[C@@H](OC(C)=O)[C@@H]1OC(C)=O = ?
> 100 µM

Notebook entry, HOP-62 NSCLC assay: TGI of CC(C)c1cccc(C(C)C)c1N1C(=O)C(=O)C(c2nc3ccccc3o2)C(=O)C1=O = ?
> 100 µM

Notebook entry, HOP-62 NSCLC assay: TGI of N#Cc1ccccc1NC(=O)C(=O)C1NC(=S)NC1=O (stereo unspecified) = ?
> 100 µM

Notebook entry, HOP-62 NSCLC assay: TGI of Cc1ccccc1NC(=O)CC(=O)NNC(Sc1ccccc1)c1cc(N=Nc2ccc(Br)cc2)ccc1O (stereo unspecified) = ?
> 10 µM

====

Test system: HT29 colon
Run description: NCI tumour cell line growth inhibition, 48 h; in the data active = GI50 below about 0.43 µM; inactive = the rest
Your response should consist of one outcome taken from active, inactive

These recorded examples may help you get a feel for the data.
Compound: COc1cc(OC)cc(C2C3=C(COC3=O)Nc3cc(OC)ccc32)c1 (centres undefined)
Label value: active

Compound: Cc1ccc(N=C[N-]c2ccc(C)cc2)cc1.Cc1ccc(N=C[N-]c2ccc(C)cc2)cc1.O=C([O-])C(F)(F)F.O=C([O-])C(F)(F)F.[OH3+].[OH3+].[Rh+2].[Rh+2]
Label value: inactive

Compound: CC/C(Cc1ccccc1)=C(\c1ccc(OCCN2CCCC2)cc1)c1ccc(OC(=O)NCc2ccccc2)cc1
Label value: inactive

Compound: COC(=O)c1c(-c2cccs2)oc(-c2cccs2)c1C(=O)OC
Label value: inactive

Compound: CCCc1cc(=O)n2c(C(=O)Nc3ccc(F)cc3)c(C(=O)Nc3ccc(F)cc3)sc2n1
Label value: inactive

Which outcome did this test record for the compound CCN(CC)CCCC(C)Nc1cc(-c2cccc(OC(F)(F)F)c2)nc2ccc(N3CCCC3)cc12 (centres undefined) ?
active

Which outcome did this test record for the compound CCCCCCSSC(=S)N(CC)CC ?
inactive

Which outcome did this test record for the compound O=C(NCC(F)(F)F)Nc1cccc(-c2cnc3cc(-c4ccc(F)cc4)ccn23)c1 ?
active

Which outcome did this test record for the compound N#CC1=C(N)Oc2c(ccc3ccccc23)C1c1cc(=O)oc2ccc(Cl)cc12 (centres undefined) ?
inactive
